- Experimental System: CCR5 (Homo sapiens, UniProt P51681)
- Construct: expressed in transfected cells
- Sequence (P51681 whole entry): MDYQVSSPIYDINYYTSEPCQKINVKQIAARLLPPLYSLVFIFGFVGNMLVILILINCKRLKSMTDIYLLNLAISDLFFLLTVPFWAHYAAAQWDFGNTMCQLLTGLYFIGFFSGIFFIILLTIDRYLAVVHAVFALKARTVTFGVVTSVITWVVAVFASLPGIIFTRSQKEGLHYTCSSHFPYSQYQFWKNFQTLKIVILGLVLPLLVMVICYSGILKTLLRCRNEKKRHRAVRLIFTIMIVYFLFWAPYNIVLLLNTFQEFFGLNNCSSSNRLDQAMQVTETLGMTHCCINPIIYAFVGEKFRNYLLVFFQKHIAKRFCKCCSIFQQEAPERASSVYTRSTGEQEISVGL
- Assay Procedure: Inhibition of CCR5: [35S]GTPγS binding assays (filtration, SPA-WGA) and calcium influx assay, 10 nM RANTES, CHO-CCR5
- Format: biochemical
- Condition Parameters: compound at 30 nM; 10 nM RANTES; read-out: inhibition against CCR5 @30 nM
Measure: inhibition at 0.03 µM (%)
Use % as the unit, but write only the number.

Some solved cases for reference:
1. CC(=O)N1CCC(C(=O)N(CCCN2C3CCC2CC(NC(=O)c2ccc(C(F)(F)F)cc2)C3)c2ccc(C)c(Cl)c2)CC1 (stereo not drawn)
26.5
2. CC(=O)N1CCC(C(=O)N(CCCN2C3CCC2CC(n2c(C)nnc2C(C)C)C3)c2ccc(C)c(Cl)c2)CC1 (stereo not drawn)
48.8
3. Cc1ccc(S(=O)(=O)NC2CC3CCC(C2)N3CCCN(C(=O)C2CCCCC2)c2ccc(C)c(Cl)c2)cc1 (stereo not drawn) [Compound 15a]
45.2
4. CC(=O)N1CCC(C(=O)N(CCCN2C3CCC2CC(NC(=O)CCc2cccnc2)C3)c2ccc(C)c(Cl)c2)CC1 (stereo not drawn)
17.5
5. CC(=O)N1CCC(C(=O)N(CCCN2C3CCC2CC(NC(=O)Nc2ccccc2)C3)c2ccc(C)c(Cl)c2)CC1 (stereo not drawn) [Compound 10c]
33.5

Could you now consider this next compound?
Supply inhibition at 0.03 µM value. Item: CC(=O)N1CCC(C(=O)N(CCCN2C3CCC2CC(NC(=O)c2cccnc2)C3)c2ccc(C)c(Cl)c2)CC1 (stereo not drawn)
3.36
